- Tested on: MOLT-4
- Test method notes: NCI tumour cell line growth inhibition, 48 h
The source made the active and inactive calls. Cut-off read from the data, not from the text of the source: active = GI50 up to about 1.1 µM and inactive = higher.
Readout: GI50

                                   compound  experimental_target  readout        observed_value
0  NCCCCC(N)C(=O)N1CCN(c2nc(N3CCCC3)c3nc(Cl)c(NCc4ccccc4)nc3n2)CC1 (stereo unspecified)               MOLT-4     GI50    24.5 µM (inactive)
1        COc1ccc(-c2csc(=[N+]3CCCCC3)s2)cc1               MOLT-4     GI50    2.53 µM (inactive)
2  CC(=O)OC12c3ccccc3-c3ccccc3C1C(C(=O)O)C2(Cl)C(=O)O (stereo unspecified)               MOLT-4     GI50    > 10 µM (inactive)
3             COC(=O)CCC(=O)Nc1cc(Cl)ccc1Cl               MOLT-4     GI50   > 100 µM (inactive)
4  Cc1ccc(/N=C2N=C(Cl)/C(=C\c3ccco3)N\2)cc1               MOLT-4     GI50  > 91.8 µM (inactive)
5  C(=C1\CCC/C(=C/c2ccccc2)C1=NNc1ccccc1)/c1ccccc1               MOLT-4     GI50   > 100 µM (inactive)
